Organism: Homo sapiens
test-name: Chondrogenic activity in human ASC assessed as increase in aggrecan expression at 10 uM incubated for 11 days by sandwich ELISA relative to control
Type: functional
Activity calls are given as the source filed them. No cut-off for these calls is given here.
Can you answer with just one of these options? 1 = active, -1 = inactive

CC(C)(C)c1ccc(S(=O)(=O)NC2CCC(CCO)CC2)cc1 (centres undefined); -1
O=S(=O)(NCCc1ccc(O)c(O)c1)c1ccc(-c2ccccc2)cc1; -1
O=S(=O)(Nc1ccc(O)cc1Cl)c1ccc2ccccc2c1; 1
O=[N+]([O-])c1cc(NS(=O)(=O)c2ccc3ccccc3c2)ccc1O; 1
CCN(c1cc(O)ccc1C)S(=O)(=O)c1ccc2ccccc2c1; -1

I'd appreciate the recorded outcome for O=S(=O)(NC1CCC(CCO)CC1)c1ccc2ccccc2c1 (centres undefined) from this test.
-1

I'd appreciate the recorded outcome for `O=S(=O)(NCCc1ccc(O)c(O)c1)c1ccc2ccccc2c1` from this test.
-1

I'd appreciate the recorded outcome for `O=S(=O)(Nc1ccc(O)cc1F)c1ccc2ccccc2c1` from this test.
1

I'd appreciate the recorded outcome for `Cc1ccc(S(=O)(=O)Nc2cccc3c(O)cccc23)cc1` from this test.
1

I'd appreciate the recorded outcome for `CCN(c1cc(O)ccc1C)S(=O)(=O)c1ccc(C(C)(C)C)cc1` from this test.
-1

I'd appreciate the recorded outcome for `CC(C)(C)c1ccc(S(=O)(=O)NCCc2ccc(O)c(O)c2)cc1` from this test.
-1

I'd appreciate the recorded outcome for O=S(=O)(NC1CCC(CCO)CC1)c1ccc(-c2ccccc2)cc1 (centres undefined) from this test.
-1

I'd appreciate the recorded outcome for `Cc1ccc(S(=O)(=O)Nc2cccc3ccc(O)cc23)cc1` from this test.
1

I'd appreciate the recorded outcome for `O=S(=O)(Nc1ccc(O)cc1)c1ccc2ccccc2c1` from this test.
-1
